test system: T-47D breast; experiment: NCI tumour cell line growth inhibition, 48 h
Where a SMILES comes first, the peptide text is derived from it. [ ]: non-standard residue; d: D form. β3hI = CC[CH](C)[CH](N)CC(=O)O
observable: TGI

INSERT INTO assay_data (molecule, tested_on, observable, result) VALUES
  ('OC1CN2CCS[C@H]2C(O)C1O (some centres undefined)', 'T-47D breast', 'TGI', '> 100 µM'),
  ('CCOC(=O)[C@@]12CCC(C1=O)[C@](C)(O)C[C@@H]2c1ccccc1', 'T-47D breast', 'TGI', '> 100 µM'),
  ('CCC(C)C(CC(=O)N1CCCC1C(=O)NC(C(=O)NC(C(=O)NCC(=O)NC(CC(N)=O)C(=O)NC(C(=O)NC(C(=O)NC(CCCCN)C(N)=O)C(C)CC)C(C)CC)C(C)C)C(C)CC)NC(=O)C(N)C(C)CC (stereo not drawn) (H-I[β3hI]PIVGNIIK-NH2; configuration not given here)', 'T-47D breast', 'TGI', '> 50 µM'),
  ('Nc1ncnc2c1ncn2C1OC(CO)=CC1O (centres undefined)', 'T-47D breast', 'TGI', '> 37.5 µM'),
  ('O=C(O)CC/C(=N\Nc1nsc2ccccc12)c1ccc(Cl)cc1', 'T-47D breast', 'TGI', '> 100 µM'),
  ('Cc1nc(NC(=O)CCCN2C(=O)c3cccc4cccc(c34)C2=O)sc1C(=O)Nc1cc(C(=O)NCCCN(C)C)n(C)c1', 'T-47D breast', 'TGI', '> 100 µM');

For `O=C(CCCl)NNC1=NCCN1` , what is its reported TGI?
> 100 µM

Which TGI is reported for this molecule? `CCCCCCCC[N+](C)(CCCCCCCC)CCCCCCCC`
1.73 µM

For the molecule `CCn1cnc2c(Nc3cccc(Cl)c3)nc(N[C@@H]3CCCC[C@@H]3N)nc21` , what TGI is on record?
5.16 µM

###

Collected GI50 values appear next to each entry.
system: OVCAR-5 ovarian; experiment: NCI tumour cell line growth inhibition, 48 h

INSERT INTO measurements (compound, result) VALUES
  ('COC(=O)C1=C(C(=O)OC)C23C=C(C)C1C2=C(C)C1(CC1)[C@@](C)(O)C3=O (stereo partly specified)', '365 nM');

# context switch: different compound, same GI50
What value of measured GI50 is listed for `COC1=CC(c2ccc[nH]2)=N/C1=C\c1ccc[nH]1` ?
683 nM

###

test system: CCRF-CEM leukemia; experiment: NCI tumour cell line growth inhibition, 48 h
observable: TGI

# example entries with known answers
INSERT INTO assay_data (compound, result) VALUES
  ('COc1ccc(/C=C/C(=O)N[C@@H]2C(=O)N3[C@@H]2SC(C)(C)[C@@H]3C(=O)O)cc1', '> 100 µM'),
  ('O=C(NCCO)Nc1c(C(F)(F)F)cc(-c2ccccc2)[nH]c1=O', '> 100 µM'),
  ('COC(=O)C1=C(CO)C2C=CC1C2 (stereo not given)', '> 100 µM'),
  ('Cc1cc(Cl)cc2c1NC(=O)C2(O)C(C)C(=O)c1ccc(Cl)cc1 (stereo not given)', '> 89.4 µM');

Which TGI value is on record for CC1OC(OCC2COC(O)(Oc3c(-c4ccc(O)c(O)c4)oc4cc(O)cc(O)c4c3=O)C(O)C2O)C(O)C(O)C1O (stereo not given) ?
> 100 µM
